Exercise: state measured log10(TGI) for each of the compounds provided.
System: SK-MEL-28 melanoma
Assay: NCI tumour cell line growth inhibition, 48 h
A difference of one corresponds to tenfold TGI; all values are log10 with TGI in µM.

Query: Which log10(TGI) is listed for `Clc1cccc(NC=Nc2ccc(-c3nc4ccccc4s3)cc2)c1` ?
Result: 1.26

Query: Value lookup for log10(TGI); key = CCCCCCCCCCCCOC1C(CNCC2OC3OC(C)(C)OC3C2NC(=O)Nc2ccc(C(=O)OCC)cc2)OC2OC(C)(C)OC21 (configuration not stated)
Result: 0.63

Query: Please report the recorded log10(TGI) for OC(c1cccc(C(F)(F)F)c1)c1cnccc1NC1CCCCCC1 (configuration not stated) .
Result: 0.51

Query: Item under review: `C[C@]12CC/C(=N\O)C=C1CC[C@@H]1[C@@H]2CC[C@]2(C)C(=N/O)/C(=C/c3cccnc3)C[C@@H]12` . Reported log10(TGI)?
Result: 1.73

Query: Look up log10(TGI): `Cc1cc(O)cc(O)c1N=Nc1ccc([N+](=O)[O-])cc1`
Result: 1.79

Query: Find the recorded log10(TGI) belonging to `Cc1cc(C)c2c(n1)S(=O)(=O)N(CCCN1CCN(c3cccc(C(F)(F)F)c3)CC1)/C(=C(\O)c1ccc(Cl)cc1)C2=O` and report it.
Result: 1.47

Query: Sample `O=[n+]1c(CBr)c(CBr)n([O-])c2ccccc21` — what was its log10(TGI)?
Result: 1.45

Query: Which value of log10(TGI) has been reported for `O=C(O)c1cc(S(=O)(=O)N=NC=C2c3ccccc3N(O)c3ccccc32)ccc1O` in the records?
Result: 1.49

Query: Which measured log10(TGI) value corresponds to `OCc1c(-c2cccc3ccccc23)sc(-c2cccc3ccccc23)c1CO` ?
Result: 1.37

Query: Tell me the measured log10(TGI) of `CCOc1ccc(N=C/C=C(\Cl)c2ccc3ccccc3c2)cc1` , please.
Result: 1.50

Query: Entry `Cc1c(C(=O)/C=C/c2cccc3ccccc23)[n+](=O)c2ccccc2n1[O-]` has what log10(TGI)?
Result: 1.42

Query: Endpoint output: log10(TGI) of `CN(C)c1ccc2c(c1)oc(=O)c1ccccc12` . Value?
Result: 1.54

###

System: K-562 leukemia
Assay: NCI tumour cell line growth inhibition, 48 h
For each entry below, report its TGI value.

Query: Look up TGI for this molecule: O=S(=O)(O)C(O)/C=C/c1ccccc1 (stereo unspecified)
Result: > 100 µM

Query: Would you mind telling me what TGI value was observed for `Cc1oc2nc(N(C)C)n3nnnc3c2c1C` ?
Result: > 100 µM

Query: I'd like to know its TGI. The molecule in question is O=C(CCc1ccc(O)cc1)c1c(O)cc(O)cc1OC1OC(CO)C(O)C(O)C1O (stereo unspecified)
Result: > 100 µM

Query: Fill blank: measured TGI of the molecule O=C1CC(c2ccc([N+](=O)[O-])cc2)C2(C(=O)NC(=S)NC2=O)C(c2ccc([N+](=O)[O-])cc2)C1 (stereo unspecified) is ____.
Result: > 100 µM

Query: Fill in the blank: the reported TGI of CCCCCCCCCCCCOC1C(CNCC2OC3OC(C)(C)OC3C2NC(=O)Nc2ccc(C(=O)OCC)cc2)OC2OC(C)(C)OC21 (stereo unspecified) is ____.
Result: > 100 µM

Query: Need TGI, item `O=C(OCc1ccccc1)OOC(=O)OCc1ccccc1`
Result: > 100 µM

###

Please provide measured TGI for the entries that follow.
Test system: BT-549 breast
Assay: NCI tumour cell line growth inhibition, 48 h
Use µM as the unit, but write only the number.

Query: So what's the measured TGI for this one? `C/C(=N/NC(=S)Nc1cccc(C)c1)c1ccccn1`
Result: 12.2

Query: Reported TGI for O=C1CC(c2ccc([N+](=O)[O-])cc2)C2(C(=O)NC(=S)NC2=O)C(c2ccc([N+](=O)[O-])cc2)C1 (centres undefined) : what is it?
Result: 34.1

Query: Any idea what its TGI is? The compound is `CN(C)c1ccc2c(c1)oc(=O)c1ccccc12`
Result: 17.1

Query: Suppose we examine the compound `N#Cc1c(O)c2c(c(O)c1C#N)C(=O)c1ccccc1C2=O` ; what TGI value has been reported?
Result: 14.9

Query: // TGI lookup, key: `N#Cc1c2c(c(Nc3ccc(F)cc3)n3c1nc1ccccc13)CCC2`
Result: 17.8

Query: Reported TGI, compound `COC(=O)[C@@H](C)C[C@H](Cc1ccccc1)NC(=O)c1nc([C@@H](C[C@H](C(C)C)N(C)C(=O)[C@@H](NC(=O)[C@H]2CCCN2C)C(C)C)OC(C)=O)sc1C` : ____
Result: 0.145

Query: // query TGI value for entry `CCOC(=O)c1cc(-c2ccc([N+](=O)[O-])cc2)n(-c2ccc(C(=O)O)c(O)c2)c1C`
Result: 18.1

Query: Would you mind telling me what TGI value was observed for `CN(C)CCNc1nc2ccccc2c2[nH]c3ccccc3c12` ?
Result: 8.83

###

For each record, write down the corresponding GI50.
Tested on: HCT-15 colon
Assay: NCI tumour cell line growth inhibition, 48 h

Query: # value lookup — system HCT-15 colon, readout GI50, item `CCN1CCN(c2nc(NCCNc3ccnc4cc(Cl)ccc34)c3ccccc3n2)CC1`
Result: 1520 nM

Query: // fetch HCT-15 colon GI50 for `Cn1cc(C2=C(c3ccc(OC[C@@H](O)CO)cc3)C(=O)NC2=O)c2ccccc21`
Result: > 25000 nM

Query: Hi! What's the reported GI50 for `Fc1ccc(-c2nn(-c3ccccc3)cc2-c2nc3ccccc3o2)cc1` on HCT-15 colon?
Result: 1830 nM

Query: Lab note: need GI50 for COc1ccc(CN2CCCC(C(=O)c3ccc(C(F)(F)F)cc3)C2)c(O)c1 (centres undefined) on HCT-15 colon, anyone have it?
Result: 14600 nM

Query: Give recorded GI50 with HCT-15 colon for the following compound: `N#Cc1c(O)c2c(c(O)c1C#N)C(=O)c1ccccc1C2=O`
Result: 2320 nM

Query: Identify the measured GI50 of `C[C@@H]1Cc2c([nH]c3ccccc23)[C@@H](c2c(F)cc(/C=C/C(=O)O)cc2F)N1CC(C)(C)F` for HCT-15 colon.
Result: 8140 nM

Query: Look up GI50 with HCT-15 colon for this compound: `NS(=O)(=O)c1ccc(-n2nc(-c3ccc(Br)cc3)ccc2=O)cc1`
Result: > 10000 nM

Query: Field: GI50 (HCT-15 colon). Entry: `S=C1NCCN1C1=Nc2ccccc2CO1`
Result: > 100000 nM

Query: Write down the reported GI50 of `N#Cc1nc(-c2ccc(F)cc2)oc1S(=O)(=O)N1CCOCC1` , test system: HCT-15 colon.
Result: 1980 nM

###

Provide the reported TGI of each item.
Test system: HL-60(TB) leukemia
Assay: NCI tumour cell line growth inhibition, 48 h
Give a bare numeral; the unit µM is implied.

Query: Can you look up TGI on HL-60(TB) leukemia for `CCN1CCN(c2nc(NCCNc3ccnc4cc(Cl)ccc34)c3ccccc3n2)CC1` ?
Result: 4.01

Query: Give HL-60(TB) leukemia TGI for `Brc1ccc2c3c1[C@@H]1O[C@@H]1c1cccc(c1-3)[C@@H]1O[C@H]21`
Result: 66.5

Query: Entry `O=C(/C=C/c1cccs1)c1ccc(Cl)cc1` , system HL-60(TB) leukemia: what TGI was measured?
Result: 70.5

Query: Form field: TGI recorded for `O=C1N[C@@H]2c3c(csc3Br)C(=O)[C@@H]2O1` with HL-60(TB) leukemia (enter value)
Result: 64.9

Query: Find TGI (HL-60(TB) leukemia) for the entry `OCc1c(-c2cccc3ccccc23)sc(-c2cccc3ccccc23)c1CO`
Result: 42.5

Query: // lookup TGI | system=HL-60(TB) leukemia | key= `CCOc1ccc(N=C/C=C(\Cl)c2ccc3ccccc3c2)cc1`
Result: 33.8

Query: # query: TGI | item `C[C@]12CC/C(=N\O)C=C1CC[C@@H]1[C@@H]2CC[C@]2(C)C(=N/O)/C(=C/c3cccnc3)C[C@@H]12` | system: HL-60(TB) leukemia
Result: 4.12

Query: // map `COc1cc2c(cc1O)[C@H](Cc1ccc(Oc3cc(C[C@H]4c5cc(OC)c(OC)cc5CCN4C)ccc3OC)cc1)NCC2` to recorded TGI (system: HL-60(TB) leukemia)
Result: 34.6

Query: Under HL-60(TB) leukemia: TGI value of `O=C1c2ccccc2C(=O)c2c1ccc1[nH]c(CCl)nc21` ?
Result: 7

Query: Record `COc1cc2c(c(O)c1C)C(=O)C(Cl)=CC2=O` : what is its TGI with HL-60(TB) leukemia?
Result: 5.57

Query: Which TGI is reported with HL-60(TB) leukemia for this entry: `O=c1c2cc(I)ccc2[nH]c(=S)n1Cc1ccccc1` ?
Result: 28.5

Query: Requested read-out TGI, target or system HL-60(TB) leukemia, entry `CCOC(=O)c1c(SCCN2CCCC2)n(-c2ccccc2)c(=S)n(-c2ccccc2)c1=O`
Result: 3.52

Query: Recorded TGI for `COC(=O)c1c2c(c(C)[n+]([O-])c1C)C(=O)C=CC2=O` with HL-60(TB) leukemia, please?
Result: 4.84

Query: API: value(readout=TGI, system=HL-60(TB) leukemia) for record `CN(C)CCNc1nc2ccccc2c2[nH]c3ccccc3c12`
Result: 3.77

Query: Notebook entry, HL-60(TB) leukemia assay: TGI of `COc1ccccc1NC(=O)c1ccc(/C=C/C(=O)c2nccn2C)cc1` = ?
Result: 1.41

Query: What TGI appears in the records for this compound with HL-60(TB) leukemia? `c1ccc(-c2nnc(-c3nn(-c4ccccc4)c4nc5ccccc5nc34)o2)cc1`
Result: 85.2

Query: Give HL-60(TB) leukemia TGI for `O=C1/C(=C/c2ccccc2)CN(C(=O)Oc2ccc(Cl)cc2)C/C1=C\c1ccccc1`
Result: 4.5

Query: Requested read-out TGI, target or system HL-60(TB) leukemia, entry `O=[N+]([O-])C(=C(Sc1ccccc1)Sc1ccccc1)C(Cl)=C(Cl)Cl`
Result: 0.813

Query: State its TGI on HL-60(TB) leukemia: `C[C@@H]1Cc2c([nH]c3ccccc23)[C@@H](c2c(F)cc(/C=C/C(=O)O)cc2F)N1CC(C)(C)F`
Result: 39.4
